Settings: in methanol, 293.15 K
metricName: solubility (mole fraction)

| molecularString | recordedMeasurement |
| --- | --- |
| CN1CCN(c2cc3c(cc2F)c(=O)c(C(=O)O)cn3-c2ccc(F)cc2)CC1 | 0.0064 |

###

Conditions: in methanol, 295.15 K
metricName: solubility (mole fraction)

| molecularString | recordedMeasurement |
| --- | --- |
| CN1CCN(c2cc3c(cc2F)c(=O)c(C(=O)O)cn3-c2ccc(F)cc2)CC1 | 0.0068 |

###

Conditions: in ethanol, 295.15 K
metricName: solubility (mole fraction)

| molecularString | metricName | recordedMeasurement |
| --- | --- | --- |
| CN1CCN(c2cc3c(cc2F)c(=O)c(C(=O)O)cn3-c2ccc(F)cc2)CC1 | solubility (mole fraction) | 0.0435 |
